The measurements presented in this section are drawn from ChEMBL document CHEMBL3872214.

Test system: Rattus norvegicus
Assay: Antioxidant activity in CCL4-intoxicated Wistar albino rat assessed as liver cytosolic superoxide dismutase activity per mg protein at 100 mg/kg, ip administered for 7 consecutive days after DL-alpha-tocopherol acetate treatment followed by CCL4 dosing measured after 24 hrs by xanthine based assay (reference value: 5.27 +/- 0.22 U)
Assay type: functional
METRIC: Activity
Answer as a quantity: numeral, then unit.

Incoming: Form field: Activity recorded for CC(=O)OC[C@H]1O[C@@H](NC(=S)N/N=C2/C(=O)Nc3ccc(Cl)cc32)[C@H](OC(C)=O)[C@@H](OC(C)=O)[C@@H]1OC(C)=O with Rattus norvegicus (enter value)
Outgoing: 10.2 U

Incoming: Form field: Activity recorded for Oc1ccc(/C=C/c2cc(O)cc(O)c2)cc1 with Rattus norvegicus (enter value)
Outgoing: 7.31 U

Incoming: Form field: Activity recorded for C=CCN1C(=O)/C(=N/NC(=S)N[C@@H]2O[C@H](COC(C)=O)[C@@H](OC(C)=O)[C@H](OC(C)=O)[C@H]2OC(C)=O)c2ccccc21 with Rattus norvegicus (enter value)
Outgoing: 9.91 U

Incoming: Form field: Activity recorded for CC(=O)OC[C@H]1O[C@@H](NC(=S)N/N=C2/C(=O)Nc3ccccc32)[C@H](OC(C)=O)[C@@H](OC(C)=O)[C@@H]1OC(C)=O with Rattus norvegicus (enter value)
Outgoing: 5.81 U

Incoming: Form field: Activity recorded for CC(=O)OC[C@H]1O[C@@H](NC(=S)N/N=C2/C(=O)N(Cc3ccccc3)c3ccccc32)[C@H](OC(C)=O)[C@@H](OC(C)=O)[C@@H]1OC(C)=O with Rattus norvegicus (enter value)
Outgoing: 8.6 U

Incoming: Form field: Activity recorded for CC(=O)OC[C@H]1O[C@@H](NC(=S)N/N=C2/C(=O)Nc3c(C)cccc32)[C@H](OC(C)=O)[C@@H](OC(C)=O)[C@@H]1OC(C)=O with Rattus norvegicus (enter value)
Outgoing: 4.6 U

Incoming: Form field: Activity recorded for CC(=O)OC[C@H]1O[C@@H](NC(=S)N/N=C2/C(=O)Nc3c(Br)cc(Br)cc32)[C@H](OC(C)=O)[C@@H](OC(C)=O)[C@@H]1OC(C)=O with Rattus norvegicus (enter value)
Outgoing: 10.89 U

* * *

System: Pseudomonas aeruginosa
Assay: Antibacterial activity against Pseudomonas aeruginosa […] after 18 to 20 hrs by two-fold microbroth dilution method
Type: functional
METRIC: MIC (µM)
Write down the numeric answer in µM and omit the unit.

Incoming: Recorded MIC for CCCCN1C(=O)/C(=N/NC(=S)N[C@@H]2O[C@H](COC(C)=O)[C@@H](OC(C)=O)[C@H](OC(C)=O)[C@H]2OC(C)=O)c2ccccc21 , please?
Outgoing: 12.5

Incoming: Recorded MIC for CC(=O)OC[C@H]1O[C@@H](NC(=S)N/N=C2/C(=O)Nc3c2cc(Cl)cc3[N+](=O)[O-])[C@H](OC(C)=O)[C@@H](OC(C)=O)[C@@H]1OC(C)=O , please?
Outgoing: 25

Incoming: Recorded MIC for C=CCN1C(=O)/C(=N/NC(=S)N[C@@H]2O[C@H](COC(C)=O)[C@@H](OC(C)=O)[C@H](OC(C)=O)[C@H]2OC(C)=O)c2ccccc21 , please?
Outgoing: 100

Incoming: Recorded MIC for CC(=O)OC[C@H]1O[C@@H](NC(=S)N/N=C2/C(=O)Nc3ccc([N+](=O)[O-])cc32)[C@H](OC(C)=O)[C@@H](OC(C)=O)[C@@H]1OC(C)=O , please?
Outgoing: 50

Incoming: Recorded MIC for CCN1C(=O)/C(=N/NC(=S)N[C@@H]2O[C@H](COC(C)=O)[C@@H](OC(C)=O)[C@H](OC(C)=O)[C@H]2OC(C)=O)c2ccccc21 , please?
Outgoing: 12.5

Incoming: Recorded MIC for CC(=O)OC[C@H]1O[C@@H](NC(=S)N/N=C2/C(=O)Nc3ccc(C(C)C)cc32)[C@H](OC(C)=O)[C@@H](OC(C)=O)[C@@H]1OC(C)=O , please?
Outgoing: 25
